biological target: MICA*004 on HCC1534 cells (human, UniProt Q29983 24-383); assay: cell-based or functional assay; note: test concentration or dose not given here
Please respond with reported % Inhibition for every item in the list.
Write the number in % without appending the unit.

# input Could you tell me which % Inhibition is on file for 13A9v4 (antibody, IgG1, V domains shown, humanized variant of 13A9) VH: EVQLVQSGAEVKKPGASVKVSCKASGYAFTNYLIEWVRQAPGQGLEWIGAINPGSGATNYNEKFKDRATLTADKSTNTAYLELSSLRSEDTAVYFCARFLGNYFDNWGQGTLVTVSS VL: DIQMTQSPSSLSASVGDRVTITCRASGNIHSYLAWYQQKPGKSPKLLVYYAETLADGVPSRFSGSGSGTDYTLTISSLQPEDFATYFCQQFWTTPYTFGQGTKVEIK ?
# output -29

# input Continue with 1D5v17 (antibody, IgG1, V domains shown, humanized variant of 1D5) VH: EIQLVQSGAEVKKPGASVKVSCKASGYAFTSQNIYWVRQAPGQGLEWIGYIEPYNVVPMYNPKFKGRATLTVDKSTSTAYLELSSLRSEDTAVYYCARSGSSNFDYWGQGTLVTVSS VL: DIQMTQSPSSLSASVGDRVTITCSASSSISSHYLHWYQQKPGKSPKLLIYRTSNLASGVPSRFSGSGSGTDYTLTISSLQPEDFATYYCQQGSSLPLTFGQGTKVEIK
# output 52

# input And then 13A9v5 (antibody, IgG1, V domains shown, humanized variant of 13A9) VH: EVQLVQSGAEVKKPGSSVKVSCKASGYAFTNYLIEWVRQAPGQGLEWIGAINPGSGATNYNEKFKDRATLTADKSTNTAYMELSSLRSEDTAVYFCARFLGNYFDNWGQGTLVTVSS VL: DIQMTQSPSSLSASVGDRVTITCRASGNIHSYLAWYQQKPGKAPKLLIYYAETLADGVPSRFSGSGSGTDFTLTISSLQPEDFATYYCQQFWTTPYTFGQGTKVEIK , what is it?
# output 9

# input Next binder: 15F11v5 (antibody, IgG1, V domains shown, humanized variant of 15F11) VH: EIQLVQSGAEVKKPGSSVKVSCKPSGYAFTSNNIYWVRQAPGQGLEWIGYIDPYIGRIIYNQQFKDRATLTVDKSTSTAYMELSSLRSEDTAVYYCSRSGERSNFDYWGQGTLVTVSS VL: EIVLTQSPATLSLSPGERATLSCSASSSISSNYLHWYQQKPGQAPRLLIYRTSNLASGIPARFSGSGSGTDFTLTISSLEPEDFAVYYCQQGGSLPLTFGQGTKVEIK
# output 46

# input Repeat for the following binder: 13A9v6 (antibody, IgG1, V domains shown, humanized variant of 13A9) VH: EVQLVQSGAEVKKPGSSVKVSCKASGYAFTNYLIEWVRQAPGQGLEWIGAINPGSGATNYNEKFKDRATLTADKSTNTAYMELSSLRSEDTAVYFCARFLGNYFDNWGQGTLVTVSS VL: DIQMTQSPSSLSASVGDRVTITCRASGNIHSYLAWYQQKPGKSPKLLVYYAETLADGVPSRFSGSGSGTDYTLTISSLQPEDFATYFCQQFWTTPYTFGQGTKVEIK
# output 16

# input Now consider 1D5 (antibody, V domains shown, mouse variable domains; also called anti-MIC 1D5) VH: EIQLQQSGPELVKPGASVKVSCKASGYAFTSQNIYWVKQSHGKSLEWIGYIEPYNVVPMYNPKFKGKATLTVDKSSSSAYIHLNSLTSEDSAIYYCARSGSSNFDYWGQGTTLTVSS VL: EIILTQSPTTMAASPGEKITITCSASSSISSHYLHWYQQKSGFSPKLLIYRTSNLASGVPARFSGSGSGTSYSLTIGTMEAEDVATYYCQQGSSLPLTFGAGTKVEIK .
# output 52

# input Record: 1D5v5 (antibody, IgG1, V domains shown, humanized variant of 1D5) VH: EIQLVQSGAEVKKPGASVKVSCKASGYAFTSQNIYWVRQAPGQGLEWIGYIEPYNVVPMYNPKFKGRATLTVDKSTSTAYMELRSLRSDDTAVYYCARSGSSNFDYWGQGTLVTVSS VL: EIVLTQSPDFQSVTPKEKVTITCSASSSISSHYLHWYQQKPDQSPKLLIKRTSNLASGVPSRFSGSGSGTDFTLTINSLEAEDAATYYCQQGSSLPLTFGQGTKVEIK
# output 39

# input And 1D5v23 (antibody, IgG1, V domains shown, humanized variant of 1D5) VH: EIQLVQSGAEVKKPGASVKVSCKASGYAFTSQNIYWVRQAPGQGLEWIGYIEPYNVVPMYNPKFKGRATLTVDTSTSTAYLELSSLRSEDTAVYYCARSGSSNFDYWGQGTLVTVSS VL: DIQLTQSPSSLSASVGDRVTITCSASSSISSHYLHWYQQKPGKSPKLLIYRTSNLASGVPSRFSGSGSGTDYTLTISSLQPEDFATYYCQQGSSLPLTFGQGTKVEIK ?
# output 50

# input Now the binder 1D5v27 (antibody, IgG1, V domains shown, humanized variant of 1D5) VH: EIQLVQSGAEVKKPGASVKVSCKASGYAFTSQNIYWVRQAPGQGLEWIGYIEPYNVVPAYNPKFKGRATLTVDKSTSTAYLELSSLRSEDTAVYYCARSGSSNFDYWGQGTLVTVSS VL: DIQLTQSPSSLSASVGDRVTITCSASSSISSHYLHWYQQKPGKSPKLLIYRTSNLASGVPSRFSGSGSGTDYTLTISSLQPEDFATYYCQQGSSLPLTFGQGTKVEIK
# output 53

# input Likewise for 1D5v25 (antibody, IgG1, V domains shown, humanized variant of 1D5) VH: EVQLVQSGAEVKKPGASVKVSCKASGYAFTSQNIYWVRQAPGQGLEWIGYIEPYNVVPMYNPKFKGRVTITVDTSTSTAYLELSSLRSEDTAVYYCARSGSSNFDYWGQGTLVTVSS VL: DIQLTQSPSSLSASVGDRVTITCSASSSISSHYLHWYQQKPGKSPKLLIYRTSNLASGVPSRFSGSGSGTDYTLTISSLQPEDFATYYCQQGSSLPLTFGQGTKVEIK ?
# output 46
